The values you see were collected from paper PMC6173406.

Please go through the items and note down their Ki.
Biological target: human BChE (Homo sapiens)
Construct: gift of Dr. F. Nachon (Département de Toxicologie, Armed Forces Biomedical Research Institute, France)
Sequence (P06276 29-602): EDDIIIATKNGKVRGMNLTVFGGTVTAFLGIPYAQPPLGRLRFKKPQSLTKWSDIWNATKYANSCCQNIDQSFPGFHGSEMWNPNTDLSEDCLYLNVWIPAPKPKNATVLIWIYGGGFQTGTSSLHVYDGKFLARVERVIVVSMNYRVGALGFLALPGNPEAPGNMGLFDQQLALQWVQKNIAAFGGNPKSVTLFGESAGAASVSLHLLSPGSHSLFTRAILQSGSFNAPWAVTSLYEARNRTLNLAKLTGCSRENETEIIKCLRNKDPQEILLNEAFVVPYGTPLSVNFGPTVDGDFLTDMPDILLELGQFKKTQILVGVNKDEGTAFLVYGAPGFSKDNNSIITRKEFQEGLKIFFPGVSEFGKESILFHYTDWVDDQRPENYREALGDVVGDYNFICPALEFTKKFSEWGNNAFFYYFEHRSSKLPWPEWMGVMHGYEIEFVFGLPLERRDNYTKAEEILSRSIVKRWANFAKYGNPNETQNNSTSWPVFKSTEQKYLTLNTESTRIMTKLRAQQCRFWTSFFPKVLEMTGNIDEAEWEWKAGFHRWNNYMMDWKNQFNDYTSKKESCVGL
Assay: Reversible inhibition of human BChE, Ellman method with ATCh, Hunter-Downs analysis
Type: biochemical
Conditions: enzyme-inhibitor dissociation constant ± standard error; ATCh 0.050–0.50 mM, pH 7.4, 25 °C
Answers are plain numbers, in µM.

Below: 3 compounds and their reported Ki.
# compound, system, units, Ki
rows = [
    ("C=CC1C[N+]2(Cc3cccc(Br)c3)CCC1CC2C(O)c1ccnc2ccccc12 (stereo not shown) [CN-(mBr)]", "human BChE (Homo sapiens)", "µM", 2.3),
    ("C=CC1C[N+]2(C)CCC1CC2C(O)c1ccnc2ccccc12 (stereo not shown) [CN-Met]", "human BChE (Homo sapiens)", "µM", 29),
    ("C=CC1C[N+]2(Cc3cccc(Cl)c3)CCC1CC2C(O)c1ccnc2ccccc12 (stereo not shown) [CN-(mCl)]", "human BChE (Homo sapiens)", "µM", 5.4),
]

For each of the compounds below, state Ki.
1. C=CC1C[N+]2(Cc3ccc(C)cc3)CCC1CC2C(O)c1ccnc2ccccc12 (stereo not shown) [CN-(pCH3), N-(4-methylbenzyl) cinchoninium bromide]
2. C=CC1C[N+]2(Cc3cccc(Cl)c3)CCC1CC2C(O)c1ccnc2ccccc12 (stereo not shown) [CD-(mCl)]
3. C=CC1C[N+]2(Cc3ccc(Br)cc3)CCC1CC2C(O)c1ccnc2ccccc12 (stereo not shown) [CD-(pBr)]
4. C=CC1C[N+]2(Cc3ccccc3)CCC1CC2C(O)c1ccnc2ccccc12 (stereo not shown) [CN-Bzl]
5. C=CC1C[N+]2(Cc3cccc([N+](=O)[O-])c3)CCC1CC2C(O)c1ccnc2ccccc12 (stereo not shown) [CD-(mNO2), N-(3-nitrobenzyl) cinchonidinium bromide]
6. C=CC1C[N+]2(Cc3cccc(C)c3)CCC1CC2C(O)c1ccnc2ccccc12 (stereo not shown) [CD-(mCH3)]
7. C=CC1C[N+]2(Cc3ccc([N+](=O)[O-])cc3)CCC1CC2C(O)c1ccnc2ccccc12 (stereo not shown) [CD-(pNO2)]

Return:
[3.1, 0.24, 0.038, 2.9, 4.7, 0.077, 6]

For each of the compounds below, state Ki.
1. C=CC1C[N+]2(Cc3cccc([N+](=O)[O-])c3)CCC1CC2C(O)c1ccnc2ccccc12 (stereo not shown) [CN-(mNO2)]
2. C=CC1C[N+]2(Cc3ccc(Cl)cc3)CCC1CC2C(O)c1ccnc2ccccc12 (stereo not shown) [CD-(pCl)]
3. C=C[C@H]1CN2CC[C@H]1C[C@H]2[C@H](O)c1ccnc2ccccc12 [CD, cinchonidine, reference compound]
4. C=CC1C[N+]2(C)CCC1CC2C(O)c1ccnc2ccccc12 (stereo not shown) [CD-Met]

Return:
1. 4.2
2. 0.1
3. 28
4. 26

For each of the compounds below, state Ki.
1. C=CC1C[N+]2(Cc3cccc(C)c3)CCC1CC2C(O)c1ccnc2ccccc12 (stereo not shown) [CN-(mCH3), N-(3-methylbenzyl) cinchoninium bromide]
2. C=C[C@H]1C[N@@]2CC[C@H]1C[C@@H]2[C@@H](O)c1ccnc2ccccc12 [CN, cinchonine, reference compound]

Return:
[4.6, 4.9]
